target: Nitric oxide synthase 1 (Rattus norvegicus); assay: Percentage inhibition of rat striatal neural nitric oxide synthase (nNOS) activity at 1 mM by quantifying L-[3H]citrulline production
We use 40% as the dividing line for inhibition: on or above the line is True, below is False.

- COc1ccc(N)c(C(=O)CCNC(=O)C2CCCCC2)c1: True

Assess whether reported inhibition for `COc1ccc(N)c(C(=O)CCNC(=O)C2CCCC2)c1` sits at 40% or higher. True

Now consider `CCC(=O)NCCC(=O)c1cc(OC)ccc1N` . True

Proceed to `Nc1ccc(Cl)cc1C(=O)CCNC(=O)c1ccccc1` False

Another: `CCCC(=O)NCCC(=O)c1cc(OC)ccc1N` True
